assayOverview: label from the status in PepcDB records
valueKind: protein production

# sequenceCode, valueKind, recordedResult
records = [
    ("MKKLMITQEAGVATVLIKNPPVNILTIDLINELNAFILSLKDDRETKVVVFKSFHEAFFIAHLDLNVINGTSGGQAASIEFNHMIANIKAMKQLSIAVVDGVARGGGNEFVMACDLAYGTENSAFAQPELYINIPTGGQGAVQFARRLGKGKALQALLTGADFTAQQAETLNIITQFVLKAELDVFLAQLLSVIVGWEIRDIVMYKEIIAASIKDEAVGTELELRYFLERAREEKTQTIIAAFLKHGGQTEREAKDMQGIFVDTAAELSK", "protein production", "failed"),
    ("MDEILTNTATPEVGGVAQLSPSAARTKARIALAVMLVPLFGTLEAIRLWFTGQVHALDFILFAVFYAVQMFGVSMGYHRYLAHRAFKTSRLMSSLMLIAGCMAAQGPILFWVTTHRRHHTYSDQHGDPHSPNLMGQSRWQRAKGLWHAHMPWMLAPDMSSWNFFAPDILRDRRLFFYNQTYLFWVALGVILPGVIGGLVSQSWSGAWSGLIFGGLARIFVANQAAWCVGSICHRYGARPFVTHDQSTNNWIVAFLTFGEGLQNNHHAFPAWYRHGVHWWEPDLSGWTLALMGKLRLVSDLRSPSQAMIDKVRKRQASS", "protein production", "failed"),
    ("MRREALKNAVLKIMTEKMELKNVTHLEETMRLNQDLYIDSVMMLQLIVYIEMDVKLCVPEDEVDPKAFLTVGSLLDFMEELQPLQDVNVNN", "protein production", "failed"),
]

* * *

assayOverview: label from the status in PepcDB records
valueKind: protein production

# sequenceCode, valueKind, recordedResult
rows = [
    ("MTRSANPSLFLPLRAAWLALMRFQAKSGFVMSSHVAMSMMMALFPFILFTVALAGSLSQDLVTDDLIQLIFGTWPEQVATPIVAELKAVLAGANSRVMTVGGVLAVYFASNGVDAVREAMSRAYHDAETRPFWKTRLLCIAIVVGGGAIVLAVAAFEVVMPIYTRLVTDALPGAAPDWLSVERLSWIFVVAMPAGAVLACHALLPAGRHPLRRILPGVVLTLVLWAGCGWGFSLYIANFASYSTTYAGLAGAMAALIFLYLNAAILILGAEFNGALMDLSGGPD", "protein production", "not failed"),
    ("ELREARLNAFFSGAPVGMSILDNQLRFVQINELIAHIHGKPAQEHIGKTLEEIAPRIAPLVTPLCQKVLLTGQPILNVELSLPAVNQADSLRHFLVSYFPIPGEGNQLSGVGKVIVEISDVYDELRLRKRAEEALKESI", "protein production", "not failed"),
    ("MDRTHERVLQAMAENLGEGLPRAIPLLAEKAPGLLLEHGRSWTYAMPEKGALDEKTRTLILLGIALATGSEACVKAMAHRAKRLGLSKEALLETLKIARQAQANAVLGHAAPLLEVL", "protein production", "not failed"),
]

* * *

assayOverview: label from the status in PepcDB records
valueKind: protein production

Field: example entries. Status: answers known.
# sequenceCode, recordedResult
records = [
    ("MVHCADQGMARAARDLAGALIASSAVLYNQFDAWSRSHAAALEAVRRGGDTEGEAWLLTGLGQLRYEQDKFEESYAYFADALRLFDERGDVPRGAALSLAGMGSARREQARFAEALQLLSSALERYEQTDDVGARARVLYGIGYVHREQGRGAQAWEALSGALGLYRTASDRHGEALTLRSLALCRRADGAWADAERLLHEALRIFVGLQDTFGVMYTEQSLAKVELRRGHLEKARERLGRCLEVARERQDRFGEALVLRTLGEWCLAAGETERAREPLERALAAWEALDLPLWGARTAWDLAEVSASRATNRRRGQPARRRWRPSARWTAGRRGSARTKACRTR", "failed"),
    ("MKLALITDTSAYLPEAIENHEDVYVLDIPIIIDGKTYIEGQNLTLDQYYDKLAASKELPKTSQPSLAELDDLLCQLEKEGYTHVLGLFIAAGISGFWQNIQFLIEEHPNLTIAFPDTKITSAPQGNLVRNALMCSREGMDFDVIVNKIQSQIEKIEGFIVVNDLNHLVKGGRLSNGSAIIGNLLSIKPVLHFNEEGKIVVYEKVRTEKKALKRLAEIVKEMTADGEYDIAIIHSRAQDKAEQLYNLLAKAGLKDDLEIVSFGGVIATHLGEGAVAFGITPKN", "not failed"),
    ("MNKFENFYKVPISYKNRKNEIYKYDNLEYNKMKYGMPEYYRCPYYMHENRNLYNTESCYTPNINVGRNSFYGKTLDPNDKICEENDSVYNILEEDHKEESFKKIECMNKEDDRKKIYNKVEKNDDENIDNKKHNYCEKYEEVYPKDRSSIKIIYNDVDQQIDHNLYDDENEIVCDNEIKKRKKRDRKVFMGKYFFSDIINTIIYPCTNKSLQKYQYGSVENMDYSLYNDIQKGQKIQKVDKIKNKKAPQIIVKF", "failed"),
    ("MGNNNSTKESTHDNHSDSSTHEEMDHSGSADVPEGLQESKNPKYKVGSQVIINTSHMKGMKGAEATVTGAYDTTAYVVSYTPTNGGQRVDHHKWVIQEEIKDAGDKTLQPGDQVILEASHMKGMKGATAEIDSAEKTTVYMVDYTSTTSGEKVKNHKWVTEDELSAKLEHHHHHH", "not failed"),
]

Please examine the following record next.
[ask] Identify the reported protein production for the following entry. `MAKLSPTTRIFALVIKEILTLFKDPKGRIVLIAPPLLQLLIFSFAATMEIKNISIGILNQDFGKHGYEVIQRFIGSPTFSKVFFIQKQSDIKPIIDNQEAMVVMTIPQDFSRKIESNSQANIQLILDGRRSNATQIVNGYISSIIENYNQEIQKTHGAIMTPPVMVTRSWFNENLLYLWFTVPSLVCILSMLISLVVTALSVARERELGTFDQLLVSPLTPYEILIGKTIPAIIIGLAEGLLMWVAAVWLFDVPFYGSPLLMVYILFIFIMSTVGVGLFISSMCKTQQQAILGVFIYMVPVVTLSGYASPVENMPEWLQDLTWFNPLKFTLIAVIGIFLKGMSALEVFITTWPLLLVGAVTLFIAGWFFKQRME`
[reply] failed

* * *

assayOverview: label from the status in PepcDB records

# sequenceCode, protein production
rows = [
    ("SDQTRYSRLANITKIINTKLELREVLQRVTMAISEEIVRCDAVGIYLPEEDGTFRGFAGKPETINGVTLDTQVIDPGIDLLAKEVIETKKTIYIPDTSKDYRPDPRPVDAFKIKSLLALPISFGQELFGLVFLFDYGVPMNLTDSEIQSVEAYVNMAAVAIQNAKNLTQKENLIAEKQLLLNVTRDLSVCSS", "failed"),
    ("MNQEKLLALMMDLHQDGARQGPGSETETLRALELTRIDPLAKLQVADIGCGTGASTLVLASKLQNAQITAIDIFPEFLDVLSTRAKVMGYSEKIETLTESMDKLSFADESLDLIWSEGAIYNLGFAQGIECWKPMLKTGGVLAVSEITWLNPLPPEEIRQHWNTEYPEIATASEKIAILEHGGYDLIGYFILPSTNWLDSYYTPVEERIHDFLKRHRGDLEAEELIKMERREMDLYSRFKNWFSYGFYVARKR", "failed"),
    ("MTRASLDKQPHEVASMFDDVAERYDLTNDLLSLGQDRVWRREVAKAVDARPAQKILDLAAGTATSSLPFARAGAYVVPCDFSLGMLRVGKKNHPWLPLTAGDATKLPFKDDTFDAVTISFGLRNVQDTDTALSELYRVTKPGGRVVICEFSHPTWAPFRTVYTEYLMRALPPVARAVSSNPDAYVYLAESIRAWPTQPELAERLRKAGWSKVAWRNLTGGVVALHRGFKAV", "failed"),
]

* * *

assayOverview: label from the status in PepcDB records
valueKind: protein production

# sequenceCode, valueKind, recordedResult
data = [
    ("MFPQADEPERDTLPGQEEDPLPTGQEQPSITPIAGTEAQYIDIAEWYDSDSILYITDEGENSLVYIYNLLTGEKKSLFSSDDAVIKVTANSTHSQFAIQTVTQAGDAPVSIIDSQGELLMKLEDFGEDFSIFWSPYEEDKLIAVAYLPDWEQDLYLIDTSDKQVEMLDLDQSFVQWLDERTIVYLDWNGDSEGYYAPLYTFDLETEEVVLLHEEAIATLGFGDHVTLIIERPEQGAEVTTYQFWNGSEQLAEWSVPILRTYSEQWWIPFYDFDLNKRLFYAYKPNRTGDYFEYDGGFSFIAFDVDHGEETVLFESDEHVPFRLSPTGQRALFGPRLETVMDLPTGESNSLIELEHHHHHH", "protein production", "failed"),
    ("MNSILSSFKKNQKGIILILIASICTTIGQTLWKMSAMHNMLYILIGFFFYGIGAVGMIIALKYGSFSVIHPMMSMGYVFTIIVSYILLKESVGLGKIIGVILIMFGVAFIGLGDE", "protein production", "failed"),
    ("MRAALTGGGLVLAYTAVISSADAITKLIAQGYAAPQLYAISGLIVAAISLAAARRNRARALKTVCPRAMALRALATVVASLCFFHTFRLLPFADVFVFIGLMPIMAALMSGLMLDEHARPAAWAALVAGFVGVLCLMPGGIGAIGAGHLWALGGVVTGTFSLILSRYIGRYESNALAQVFYPNLALGLSMAAALPFVWVPMPMLDLAWVGAYAALLFLARWLLVIALRLLAAYVVTPLLNLQFVWMVALGALAFGEWPAPMTWLGAAIVMVSGLYLIWDQMTPTTREQEELSLRTDP", "protein production", "failed"),
]
